Each recorded value in this set is attributed to patent US20260159500A1.

# MEASUREMENT_TARGET: Human KIF18A (amino acid sequence 1-417) (Homo sapiens, UniProt Q8NI77)
# Sequence (Q8NI77 1-417): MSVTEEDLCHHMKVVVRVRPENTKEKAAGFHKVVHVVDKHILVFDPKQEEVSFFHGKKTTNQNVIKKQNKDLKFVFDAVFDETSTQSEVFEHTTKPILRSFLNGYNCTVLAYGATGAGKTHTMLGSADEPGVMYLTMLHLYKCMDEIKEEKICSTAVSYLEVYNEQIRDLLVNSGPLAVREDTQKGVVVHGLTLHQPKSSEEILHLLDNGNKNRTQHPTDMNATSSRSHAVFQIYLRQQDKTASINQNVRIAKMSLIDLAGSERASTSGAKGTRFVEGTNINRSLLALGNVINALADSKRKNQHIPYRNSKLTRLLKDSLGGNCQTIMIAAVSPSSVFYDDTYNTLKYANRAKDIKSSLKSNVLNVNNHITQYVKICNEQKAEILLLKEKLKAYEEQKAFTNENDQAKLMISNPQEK
# TEST_DETAILS: Enzymatic activity test (ADP-Glo, microtubule-stimulated KIF18A ATPase)
# CONDITION_LABEL: 60 μg/mL microtubules, 25 μM ATP, 2.5 nM KIF18A protein, 120 min at ambient temperature, read-out: KIF18A_nM
Assignment: determine reported pIC50 for the given compounds.
One number for each entry, as −log10 of the molar value.

Before answering, review these 5 worked examples.
1. O=C(Nc1nc2c(c(N3CCC(F)(F)CC3)n1)CCC2)c1ccc(NS(=O)(=O)CCO)cc1N1CCC2(CC1)CC2
7.17
2. O=C(Nc1cc2ccncc2c(N2CCC(F)(F)CC2)n1)c1ccc(NS(=O)(=O)CCO)cc1N1CCC2(CC1)CC2
7.47
3. COc1ccc2cc(NC(=O)c3ccc(NS(=O)(=O)CCO)cc3N3CCC4(CC3)CC4)c(F)c(N3CCC(F)(F)CC3)c2n1
6.07
4. O=C(Nc1cc2cccnc2c(N2CCC(F)(F)CC2)n1)c1cc(F)c(NS(=O)(=O)CCO)cc1N1CCC2(CC1)CC2
7.55
5. Nc1cnc2c(N3CCC(F)(F)CC3)c(F)c(NC(=O)c3ccc(NS(=O)(=O)CCO)cc3N3CCC4(CC3)CC4)cc2c1
6.76

Give me pIC50 for each of these compounds, listed below.
1. Cc1ccc2cc(NC(=O)c3ccc(NS(=O)(=O)CCO)cc3N3CCC4(CC3)CC4)c(F)c(N3CCC(F)(F)CC3)c2n1
2. N#Cc1ccc2cc(NC(=O)c3ccc(NS(=O)(=O)CCO)cc3N3CCC4(CC3)CC4)cc(N3CCC(F)(F)CC3)c2n1

Completion:
1. 6.41
2. 6.51

Give me pIC50 for each of these compounds, listed below.
1. Cc1ccc2cc(NC(=O)c3ccc(NS(=O)(=O)CCO)cc3N3CCC4(CC3)CC4)nc(N3CCC(F)(F)CC3)c2n1
2. O=C(Nc1nc(N2CCC(F)(F)CC2)nc2c1CCC2)c1ccc(NS(=O)(=O)CCO)cc1N1CCC2(CC1)CC2
3. COc1cc2cc(NC(=O)c3ccc(NS(=O)(=O)CCO)cc3N3CCC4(CC3)CC4)nc(N3CCC(F)(F)CC3)c2nn1

Completion:
[6.34, 6.72, 7.18]

Give me pIC50 for each of these compounds, listed below.
1. O=C(Nc1cc2ccc(O)nc2c(N2CCC(F)(F)CC2)c1F)c1ccc(NS(=O)(=O)CCO)cc1N1CCC2(CC1)CC2
2. Cn1ccc2cc(NC(=O)c3ccc(NS(=O)(=O)CCO)cc3N3CCC4(CC3)CC4)nc(N3CCC(F)(F)CC3)c21
3. O=C(Nc1cc2ncccc2c(N2CCC(F)(F)CC2)n1)c1ccc(NS(=O)(=O)CCO)cc1N1CCC2(CC1)CC2

Completion:
1. 7.34
2. 6.92
3. 7.11

Prompt: Given the compound `Nc1ccc2cc(NC(=O)c3ccc(NS(=O)(=O)CCO)cc3N3CCC4(CC3)CC4)cc(N3CCC(F)(F)CC3)c2n1` , what is its reported pIC50?
Completion: 7.28
